Reference source: ChEMBL document CHEMBL1135662

experiment: Cytotoxicity against cell line 2SC/20 determined by MTT test; settings: Mesocricetus auratus
experimental readout: pIC50
Please treat pIC50 as minus the base-10 logarithm of the molar concentration.

Consider the compound shown here: COc1ccc(CNCCN(C/C=C(\C)CC/C=C(\C)CC/C=C(\C)CC/C=C(\C)CC/C=C(\C)CC/C=C(\C)CC/C=C(\C)CC/C=C(\C)CCC=C(C)C)Cc2ccc(OC)c(OC)c2)cc1OC What is its recorded pIC50?
4.70

###

assay: Partition coefficient (logP); type: physicochemical; settings: octanol/water
experimental readout: logP

record smiles: COc1ccc(CNCCNCc2ccc(OC)c(OC)c2)cc1OC
logP: 3.78

Note: attention shifts to another entry.
# logP lookup, item COc1ccc(CNCCN(C/C=C(\C)CCC=C(C)C)Cc2ccc(OC)c(OC)c2)cc1OC.Cl
4.51

###

assay: Inhibitory concentration against the growth of HET-SR-2SC-LNM cell line after 72 hr of drug exposure by MTT test; type: functional, Cricetulus griseus
experimental readout: IC50 (µM)
Field: numeric (µM). Do not append units.

Look up IC50 for this sequence: BLEOMYCIN
0.519
